All figures here come from ChEMBL document CHEMBL4024777.

- Target Or System: Free fatty acid receptor 1 (Homo sapiens)
- Sequence (O14842 whole entry): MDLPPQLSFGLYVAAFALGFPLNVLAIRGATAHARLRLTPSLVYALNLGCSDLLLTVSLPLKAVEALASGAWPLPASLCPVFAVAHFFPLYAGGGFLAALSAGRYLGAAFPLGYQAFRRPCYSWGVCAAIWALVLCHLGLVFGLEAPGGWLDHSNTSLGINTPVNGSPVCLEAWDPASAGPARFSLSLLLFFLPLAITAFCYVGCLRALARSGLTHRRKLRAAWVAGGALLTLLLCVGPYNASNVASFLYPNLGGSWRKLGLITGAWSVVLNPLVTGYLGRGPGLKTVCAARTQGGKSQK
- Assay Protocol: Agonist activity at human GPR40 receptor expressed in HEK293 cells assessed as increase in intracellular calcium flux after 2.5 hrs measured over 3 mins in presence of 0.1% serum albumin by calcium 4 dye-based FLIPR assay
- Assay type: functional, cell-based
The source made the active and inactive calls. The calls are words filed in the database; no cut-off is given here.
Experimental Endpoint: Activity

CC#C[C@@H](CC(=O)O)c1ccc(OCc2ccc3nc(-c4c(C)cc(OCCCS(C)(=O)=O)cc4C)nn3c2)cc1 :: Active
CC#C[C@@H](CC(=O)O)c1ccc(OCc2ccc3nc(-c4ccc(OCCC(C)(C)O)cc4)nn3c2)cc1 :: Active
CC#C[C@@H](CC(=O)O)c1ccc(OCc2ccc3nc(-c4ccc(OC(F)F)cc4)nn3c2)cc1 :: Active
CC#C[C@@H](CC(=O)O)c1ccc(OCc2ccc3nc(-c4c(C)cccc4C)nn3c2)cc1 :: Active
CC#C[C@@H](CC(=O)O)c1ccc(OCc2ccc3nc(-c4ccc(C#N)cc4)nn3c2)cc1 :: Active
CC#C[C@@H](CC(=O)O)c1ccc(OCc2ccc3nc(-c4ccc(C(C)C)cc4)nn3c2)cc1 :: Active

Continue with the molecule presented below.
Could you tell me which Activity is on file for CC#C[C@@H](CC(=O)O)c1ccc(OCc2ccc3nc(-c4ccc(OCCOC)cc4)nn3c2)cc1 ?
Active
